study.system: Δ49N-hChoKα (Homo sapiens, UniProt P35790)
Construct: cDNA fragment 362-1534, corresponding to aminoacids 50-457; GST (N, cleaved yes); Prescission Protease recognition site (N, cleaved yes); made in house; host or cells: Escherichia coli BL21pLysS (DE3)
Sequence (P35790 50-457, stated change not applied): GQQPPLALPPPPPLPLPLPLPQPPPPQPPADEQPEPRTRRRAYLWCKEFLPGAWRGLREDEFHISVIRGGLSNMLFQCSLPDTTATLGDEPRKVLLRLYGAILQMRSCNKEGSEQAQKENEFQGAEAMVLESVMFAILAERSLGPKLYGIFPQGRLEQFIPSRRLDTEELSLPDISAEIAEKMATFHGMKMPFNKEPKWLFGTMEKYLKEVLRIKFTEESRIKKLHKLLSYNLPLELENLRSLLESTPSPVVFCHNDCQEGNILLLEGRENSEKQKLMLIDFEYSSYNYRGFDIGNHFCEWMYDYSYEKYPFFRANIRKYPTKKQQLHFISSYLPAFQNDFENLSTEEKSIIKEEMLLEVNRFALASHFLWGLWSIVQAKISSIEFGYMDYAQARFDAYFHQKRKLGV
method.summary: Biochemical kinase inhibition assay (Kinase-Glo Luminescent Kinase Assay) on Δ49N-hChoKα
particulars: ATP 5 μM, choline 5 μM, 60 minutes at rt; read-out: IC50 ChoKα
recorded.endpoint: IC50 (µM)

Worked cases, IC50 given:
Nc1nc(Cl)nc2c1ncn2[C@H]1CC[C@@H](C(=O)Nc2nc3cc(F)c(F)c(F)c3s2)CC1 :: 0.105
Nc1nc(Cl)nc2c1ncn2[C@H]1CC[C@@H](C(=O)Nc2nc3ccc(OC(F)F)cc3s2)CC1 :: 0.023
C#Cc1nc(N)c2ncn([C@H]3CC[C@@H](C(=O)Nc4nc5c(s4)CN(C)CC5)CC3)c2n1 :: 0.019

A = Cc1csc(NC(=O)[C@H]2CC[C@@H](n3cnc4c(N)nc(-c5cc[nH]n5)nc43)CC2)n1
B = COc1cccc2sc(NC(=O)[C@H]3CC[C@@H](n4cnc5c(N)nc(F)nc54)CC3)nc12
C = Nc1nc(F)nc2c1ncn2[C@H]1CC[C@@H](C(=O)Nc2nc3c(s2)CCCC3)CC1
D = COc1cccc(NC(=O)[C@H]2CC[C@@H](n3cnc4c(N)nc(-c5ccc(F)nc5)nc43)CC2)c1
E = Cc1csc(NC(=O)[C@H]2CC[C@H](n3cnc4c(N)nc(-c5cccc(C(N)=O)c5)nc43)CC2)n1
# input Place the items in sequence of falling IC50. List the labels according to the requested ordering.
# output D, E, A, B, C
(D: 0.795 µM, E: 0.478 µM, A: 0.12 µM, B: 0.031 µM, C: 0.016 µM)

* * *

study.system: Δ49N-hChoKα (Homo sapiens)
Construct: cDNA fragment 362-1534, corresponding to aminoacids 50-457; GST (N, cleaved yes); Prescission Protease recognition site (N, cleaved yes); made in house; host or cells: Escherichia coli BL21pLysS (DE3)
method.summary: Biochemical kinase inhibition assay (Kinase-Glo Luminescent Kinase Assay) on Δ49N-hChoKα
particulars: ATP 5 μM, choline 5 μM, 60 minutes at rt; read-out: IC50 ChoKα
pIC50: −log10 of the molar value.
recorded.endpoint: pIC50

COC(=O)[C@H]1CC[C@@H](n2cnc3c(N)nc(Cl)nc32)CC1 :: 6.28
Cc1csc(NC(=O)[C@H]2CC[C@@H](n3cnc4c(N)nc(C#N)nc43)CC2)n1 :: 7.06
Nc1nc(Cl)nc2c1ncn2[C@H]1CC[C@@H](C(=O)Nc2nccs2)CC1 :: 7.21
Nc1nc(Cl)nc2c1ncn2[C@H]1CC[C@@H](C(=O)Nc2nc3ccc(CC(=O)O)cc3s2)CC1 :: 7.47

A = CC(C)(C)OC(=O)N1CCc2nc(NC(=O)[C@H]3CC[C@@H](n4cnc5c(N)nc(Cl)nc54)CC3)sc2C1
B = CC1(C)Cc2nc(NC(=O)[C@H]3CC[C@@H](n4cnc5c(N)nc(Cl)nc54)CC3)sc2CO1
C = Nc1nc(Cl)nc2c1ncn2[C@H]1CC[C@@H](C(=O)Nc2nc3c(s2)CCCC3)CC1
D = COc1cccc(NC(=O)[C@H]2CC[C@@H](n3cnc4c(N)nc(-c5cccc(C(=O)Nc6ccc(CN7CCN(C)CC7)cc6)c5)nc43)CC2)c1
E = COc1ccc(NC(=O)[C@H]2CC[C@@H](n3cnc4c(N)nc(-c5ccncc5)nc43)CC2)cc1OC
# input Arrange the 5 entries by pIC50 so the values rise. Lab note: record answer as labels in requested order.
# output E, D, A, B, C
(E: 6.07, D: 6.52, A: 7.28, B: 7.62, C: 7.82)

P = Nc1nc(F)nc2c1ncn2[C@H]1CC[C@@H](C(=O)Nc2nc3c(s2)CC(F)(F)CC3)CC1
Q = CN1CCc2nc(NC(=O)[C@H]3CC[C@@H](n4cnc5c(N)nc(I)nc54)CC3)sc2C1
# input Could you check which of P and Q has a smaller value for pIC50? # reply format: chosen label
# output Q

P = Cc1cc2nc(NC(=O)[C@H]3CC[C@@H](n4cnc5c(N)nc(Cl)nc54)CC3)sc2cc1C
Q = Nc1nc(C(F)(F)F)nc2c1ncn2[C@H]1CC[C@@H](C(=O)Nc2nc3ccc(F)cc3s2)CC1
# input Which of the two items, P and Q , has the greater recorded pIC50? Select an item and report its label.
# output P
(P: 7.32, Q: 6.59)

a = COc1nc(N)c2ncn([C@H]3CC[C@@H](C(=O)Nc4nc5ccc(F)cc5s4)CC3)c2n1
b = Nc1nc(Cl)nc2c1ncn2[C@H]1CC[C@@H](C(N)=O)CC1
# input Hi there! Just curious which has the higher pIC50 between a and b . Choose, then provide that item's label.
# output a
(a: 7.27, b: 6.07)

* * *

IC50 values, listed per item
study.system: hChoKβ FL (Homo sapiens)
Construct: hChoKβ full length (FL), corresponding to aminoacids 2-395; GST (N, cleaved yes); Prescission Protease recognition site (N, cleaved yes)
method.summary: Biochemical kinase inhibition assay (Kinase-Glo Luminescent Kinase Assay) on hChoKβ FL
particulars: ATP 5 μM, choline 20 μM, 60 minutes at rt; read-out: IC50 ChoKβ
Structures can show the parent of a compound that is named as a salt.

Some compounds with known IC50 results, for comparison:
Nc1nc(Cl)nc2c1ncn2[C@H]1CC[C@@H](C(=O)Nc2nc3ccncc3s2)CC1 [cpd 138, hydrochloride] :: > 10 µM
COc1cccc(NC(=O)[C@H]2CC[C@@H](n3cnc4c(N)nc(-c5ccncc5)nc43)CC2)c1 [cpd 9] :: > 10 µM
CC1(C)Cc2nc(NC(=O)[C@H]3CC[C@@H](n4cnc5c(N)nc(Cl)nc54)CC3)sc2CO1 [cpd 195] :: 6.11 µM

# input Item under review: Cn1c(NC(=O)[C@H]2CC[C@@H](n3cnc4c(N)nc(Cl)nc43)CC2)nc2ccccc21 [cpd 95] . Reported IC50?
# output 7.12 µM

# input Cool, now Cc1csc(NC(=O)[C@H]2CC[C@@H](n3cnc4c(N)nc(C#C[Si](C)(C)C)nc43)CC2)n1 [cpd 98]
# output > 10 µM

# input Similarly, Nc1nc(F)nc2c1ncn2[C@H]1CC[C@@H](C(=O)Nc2nc3c(s2)CC(F)(F)CC3)CC1 [cpd 191] ?
# output > 10 µM

# input Repeat for the following compound: COc1ccc2nc(NC(=O)[C@H]3CC[C@@H](n4cnc5c(N)nc(Cl)nc54)CC3)sc2c1 [cpd 92]
# output 5.03 µM

* * *

study.system: hChoKβ FL (Homo sapiens, UniProt Q9Y259)
Construct: hChoKβ full length (FL), corresponding to aminoacids 2-395; GST (N, cleaved yes); Prescission Protease recognition site (N, cleaved yes)
Sequence (Q9Y259 2-395): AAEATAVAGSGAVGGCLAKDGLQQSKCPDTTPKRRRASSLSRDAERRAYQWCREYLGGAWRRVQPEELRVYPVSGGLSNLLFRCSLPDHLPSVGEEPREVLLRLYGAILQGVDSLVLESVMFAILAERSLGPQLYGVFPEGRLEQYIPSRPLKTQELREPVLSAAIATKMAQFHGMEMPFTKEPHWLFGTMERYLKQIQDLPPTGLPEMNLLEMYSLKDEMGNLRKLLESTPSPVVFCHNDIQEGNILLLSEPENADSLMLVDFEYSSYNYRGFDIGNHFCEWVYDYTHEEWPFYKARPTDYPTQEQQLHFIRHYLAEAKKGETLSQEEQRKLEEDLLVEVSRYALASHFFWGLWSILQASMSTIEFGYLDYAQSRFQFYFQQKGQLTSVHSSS
method.summary: Biochemical kinase inhibition assay (Kinase-Glo Luminescent Kinase Assay) on hChoKβ FL
particulars: ATP 5 μM, choline 20 μM, 60 minutes at rt; read-out: IC50 ChoKβ
pIC50: −log10 of the molar value. Where a name gives a salt, the structure may show the parent alone.
recorded.endpoint: pIC50

Solved entries:
Cc1csc(NC(=O)[C@H]2CC[C@H](n3cnc4c(N)nc(-c5cc[nH]n5)nc43)CC2)n1 :: < 5.00
CN(c1nc(CC(N)=O)cs1)C(=O)[C@H]1CC[C@@H](n2cnc3c(N)nc(Cl)nc32)CC1 :: < 5.00
Nc1nc(Cl)nc2c1ncn2[C@H]1CC[C@@H](C(=O)Nc2nc3c(s2)[C@H]2CC[C@@H](C3)N2)CC1 [cpd 189, hydrochloride] :: < 5.00

# input Identify the measured pIC50 of COc1cccc(NC(=O)[C@H]2CC[C@@H](n3cnc4c(N)nc(OC)nc43)CC2)c1 for hChoKβ FL (Homo sapiens, UniProt Q9Y259).
# output < 5.00

# input # iterate: COc1cccc(NC(=O)[C@H]2CC[C@@H](n3cnc4c(N)nc(C5CC5)nc43)CC2)c1
# output < 5.00

# input Entry to check: Nc1nc(Cl)nc2c1ncn2[C@H]1CC[C@@H](C(=O)Nc2nc3c(s2)CCCC3)CC1
# output 5.28

# input What do we get for Cc1csc(NC(=O)[C@H]2CC[C@@H](n3cnc4c(N)nc(-c5ccncc5)nc43)CC2)n1 ?
# output < 5.00

# input Entry to check: COc1cccc(C(=O)N[C@H]2CC[C@@H](n3cnc4c(N)nc(Cl)nc43)CC2)c1
# output < 5.00

* * *

study.system: Δ49N-hChoKα (Homo sapiens, UniProt P35790)
Construct: cDNA fragment 362-1534, corresponding to aminoacids 50-457; GST (N, cleaved yes); Prescission Protease recognition site (N, cleaved yes); made in house; host or cells: Escherichia coli BL21pLysS (DE3)
method.summary: Biochemical kinase inhibition assay (Kinase-Glo Luminescent Kinase Assay) on Δ49N-hChoKα
particulars: ATP 5 μM, choline 5 μM, 60 minutes at rt; read-out: IC50 ChoKα
recorded.endpoint: IC50 (nM)

COc1cccc(NC(=O)[C@H]2CC[C@@H](n3cnc4c(N)nc(C5CC5)nc43)CC2)c1 :: 974
Cc1csc(NC(=O)[C@H]2CC[C@@H](n3cnc4c(N)nc(C(F)(F)F)nc43)CC2)n1 :: 416

1 = Cc1csc(NC(=O)[C@H]2CC[C@@H](n3cnc4c(N)nccc43)CC2)n1
2 = Nc1nc(Cl)nc2c1ncn2[C@H]1CC[C@@H](NC(=O)c2nc3ccccc3s2)CC1
3 = COc1cccc(NC(=O)[C@H]2CC[C@@H](n3cnc4c(N)nc(-c5ccnc(OC)c5)nc43)CC2)c1
# input Order the records so the highest IC50 appears first and the lowest last. Field: ranking. Enter the labels in the order requested.
# output 1, 3, 2

a = Nc1nc(Cl)nc2c1ncn2[C@H]1CC[C@@H](C(=O)Nc2ncc(Cl)s2)CC1
b = Nc1nc(Cl)nc2c1ncn2[C@H]1CC[C@@H](C(=O)Nc2nc3c(s2)CC(F)(F)CC3)CC1
# input Looking at recorded values for IC50, does a or b come in lower? # respond with the chosen item's label
# output b

P = CN(c1nc(CC(N)=O)cs1)C(=O)[C@H]1CC[C@@H](n2cnc3c(N)nc(Cl)nc32)CC1
Q = CN1CCN(Cc2ccc(NC(=O)Cc3ccc(NC(=O)[C@H]4CC[C@@H](n5cnc6c(N)nc(Cl)nc65)CC4)cc3)cc2C(F)(F)F)CC1
R = Cc1csc(NC(=O)[C@H]2CC[C@@H](n3cnc4c(N)nc(-c5cccc(O)c5)nc43)CC2)n1
S = Nc1nc(F)nc2c1ncn2[C@H]1CC[C@@H](C(=O)Nc2nc3c(O)cccc3s2)CC1
# input Order the records by IC50, with each subsequent value no larger than the one before. Output spec: labels arranged per the requested ranking.
# output R, P, S, Q
(R: 176 nM, P: 70 nM, S: 45 nM, Q: 13 nM)
